- study-target: T1, human IL-18BP (human, UniProt O95998 31-194)
- T1 construct: UniProt printed as 095998; also called hIL-18BP
- T1 sequence: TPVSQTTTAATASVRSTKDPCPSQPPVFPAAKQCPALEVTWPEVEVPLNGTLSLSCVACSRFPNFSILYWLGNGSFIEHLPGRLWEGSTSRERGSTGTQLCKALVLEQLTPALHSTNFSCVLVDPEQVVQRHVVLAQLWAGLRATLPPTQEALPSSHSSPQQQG
- experiment-notes: BLI, apparent KD
Reported Kd is given for each of the following binders.

{"columns": ["binder", "Kd [nM]"],
 "data": [
  ["SA301a LC-Y91K (antibody, name in Kabat numbering, V domains shown, IgG1 kappa) VH: QVQLQESGPGLVKPSQTLSLTCTVSGYSITSDYNSHWIRQPPGKGLEWIGYIHYSGSTNYNPSLKSRVTISRDTSKNQFSLKLSSVTAADTAVYYCARNYGSIYVNYFDYWGQGTLVTVSS VL: EIVLTQSPATLSLSPGERATLSCSASSSVSYMYWYQQKPGQAPRPLIYRTSNLASGIPARFSGSGSGTDFTLTISSLEPEDFAVYYCQQKHSYPTFGGGTKVEIK", 1.13],
  ["SA301a LC-Y94N (antibody, V domains shown) VH: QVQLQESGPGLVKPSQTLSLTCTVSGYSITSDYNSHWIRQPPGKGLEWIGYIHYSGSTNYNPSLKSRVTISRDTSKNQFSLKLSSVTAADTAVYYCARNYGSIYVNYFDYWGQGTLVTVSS VL: EIVLTQSPATLSLSPGERATLSCSASSSVSYMYWYQQKPGQAPRPLIYRTSNLASGIPARFSGSGSGTDFTLTISSLEPEDFAVYYCQQYHSNPTFGGGTKVEIK", 0.22],
  ["SA301a LC-T96M (antibody, V domains shown) VH: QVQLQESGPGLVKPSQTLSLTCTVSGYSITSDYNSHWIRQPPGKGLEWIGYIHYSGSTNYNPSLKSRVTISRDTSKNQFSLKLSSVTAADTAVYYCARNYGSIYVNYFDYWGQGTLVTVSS VL: EIVLTQSPATLSLSPGERATLSCSASSSVSYMYWYQQKPGQAPRPLIYRTSNLASGIPARFSGSGSGTDFTLTISSLEPEDFAVYYCQQYHSYPMFGGGTKVEIK", 0.19],
  ["SA301a LC-P95Y (antibody, V domains shown) VH: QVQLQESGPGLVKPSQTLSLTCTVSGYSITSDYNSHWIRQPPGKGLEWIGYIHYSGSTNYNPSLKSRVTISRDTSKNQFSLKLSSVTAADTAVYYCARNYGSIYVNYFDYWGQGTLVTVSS VL: EIVLTQSPATLSLSPGERATLSCSASSSVSYMYWYQQKPGQAPRPLIYRTSNLASGIPARFSGSGSGTDFTLTISSLEPEDFAVYYCQQYHSYYTFGGGTKVEIK", 0.82],
  ["SA301a LC-Q90F (antibody, name in Kabat numbering, V domains shown, IgG1 kappa) VH: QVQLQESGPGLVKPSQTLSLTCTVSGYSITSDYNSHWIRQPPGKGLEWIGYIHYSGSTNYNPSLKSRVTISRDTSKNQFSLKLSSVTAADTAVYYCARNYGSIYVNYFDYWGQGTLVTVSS VL: EIVLTQSPATLSLSPGERATLSCSASSSVSYMYWYQQKPGQAPRPLIYRTSNLASGIPARFSGSGSGTDFTLTISSLEPEDFAVYYCQFYHSYPTFGGGTKVEIK", 0.65]
]}
